Where these numbers come from: ChEMBL document CHEMBL3044826

Test system: MDA-MB-231
Method summary: Cytotoxicity against Homo sapiens (human) MDA-MB-231 cells assessed as growth inhibition at 10 uM after 48 hr by coulter counter analysis
Assay type: functional
Conditions: MDA-MB-231, 48 h, read-out: GI
Entries and their measured inhibition of growth at 10 µM follow.

Compound string: O=c1c2ccccc2nc(SCc2nnc(S)n2-c2ccccc2)n1CCc1ccccc1
Uom: %
Censor symbol: =
inhibition of growth at 10 µM: 20
//
Compound string: O=C1c2ccccc2C(=O)N1CCCSc1nc2ccccc2c(=O)n1CCc1ccccc1
Uom: %
Censor symbol: =
inhibition of growth at 10 µM: 14
//
Compound string: CCn1c(S)nnc1CSc1nc2ccccc2c(=O)n1CCc1ccccc1
Uom: %
Censor symbol: =
inhibition of growth at 10 µM: 18
//
Compound string: O=c1c2ccccc2nc(SCc2ccc([N+](=O)[O-])cc2)n1CCc1ccccc1
Uom: %
Censor symbol: =
inhibition of growth at 10 µM: 19
//
Compound string: O=C(CSc1nc2ccccc2c(=O)n1CCc1ccccc1)c1ccccc1
Uom: %
Censor symbol: =
inhibition of growth at 10 µM: 11
//
Compound string: COc1ccc(-n2c(S)nnc2CSc2nc3ccccc3c(=O)n2CCc2ccccc2)cc1
Uom: %
Censor symbol: =
inhibition of growth at 10 µM: 20
//
Compound string: O=c1c2ccccc2nc(SCc2nnc(S)n2Cc2ccccc2)n1CCc1ccccc1
Uom: %
Censor symbol: =
inhibition of growth at 10 µM: 28
//
Compound string: O=c1c2ccccc2nc(SCCN2CCCCC2)n1CCc1ccccc1
Uom: %
Censor symbol: =
inhibition of growth at 10 µM: 34
//
Compound string: O=c1c2ccccc2[nH]c(=S)n1CCc1ccccc1
Uom: %
Censor symbol: <
inhibition of growth at 10 µM: 10
//
Compound string: O=c1c2ccccc2nc(SCCN2CCOCC2)n1CCc1ccccc1
Uom: %
Censor symbol: <
inhibition of growth at 10 µM: 10
//
Compound string: O=C(CSc1nc2ccccc2c(=O)n1CCc1ccccc1)c1ccc(F)cc1
Uom: %
Censor symbol: =
inhibition of growth at 10 µM: 23
//
Compound string: CSc1nc2ccccc2c(=O)n1CCc1ccccc1
Uom: %
Censor symbol: =
inhibition of growth at 10 µM: 30

---

Each entry below carries its recorded inhibition of growth at 10 µM.
Tested on: HT-29
Method summary: Cytotoxicity against Homo sapiens (human) HT-29 cells assessed as growth inhibition at 10 uM after 48 hr by coulter counter analysis
Format: functional
Conditions: HT-29, 48 h, read-out: GI
Value kind: inhibition of growth at 10 µM (%)

Compound string: O=C1c2ccccc2C(=O)N1CCCSc1nc2ccccc2c(=O)n1CCc1ccccc1
Target system: HT-29
Censor symbol: =
Measured result: 13
//
Compound string: O=c1c2ccccc2nc(SCc2ccc([N+](=O)[O-])cc2)n1CCc1ccccc1
Target system: HT-29
Censor symbol: =
Measured result: 15
//
Compound string: O=c1c2ccccc2nc(SCCN2CCCCC2)n1CCc1ccccc1
Target system: HT-29
Censor symbol: =
Measured result: 70
//
Compound string: CSc1nc2ccccc2c(=O)n1CCc1ccccc1
Target system: HT-29
Censor symbol: <
Measured result: 10
//
Compound string: CCn1c(S)nnc1CSc1nc2ccccc2c(=O)n1CCc1ccccc1
Target system: HT-29
Censor symbol: <
Measured result: 10
//
Compound string: O=c1c2ccccc2nc(SCc2nnc(S)n2-c2ccccc2)n1CCc1ccccc1
Target system: HT-29
Censor symbol: <
Measured result: 10
